target: Arabidopsis thaliana SHMT; test: SHMT activity assay (ED50 SHMT), coupled with N5,N10-CH2-THF dehydrogenase, NADH at 340 nm; assay type: biochemical; details: Table 2; values given as upper bounds
Can you tell me EC50 for the items I'm about to list?

Query :: Identify the reported EC50 for the following entry. CCCC1(c2cccc(Cl)c2)C(C#N)=C(N)Oc2[nH]nc(C)c21 (stereo not shown)
Result :: < 1000 nM

Query :: For CCC1(c2cccc(-c3ccccc3)c2)C(C#N)=C(N)Oc2[nH]nc(C)c21 (stereo not shown) , write its EC50.
Result :: < 1000 nM

Query :: Name the recorded EC50 of the compound listed here: CCC(=O)Nc1ccc(C2(CC)C(C#N)=C(N)Oc3[nH]nc(C)c32)cc1 (stereo not shown)
Result :: < 1000 nM

Query :: Identify measured EC50 corresponding to Cc1n[nH]c2c1C(c1cc(C(F)(F)F)cc(C(F)(F)F)c1)(C1CCC1)C(C#N)=C(N)O2 (stereo not shown)
Result :: < 100 nM

Query :: Find the measured EC50 of COC(=O)c1ccc(-c2cc(C#N)cc(C3(C4CCC4)C(C#N)=C(N)Oc4[nH]nc(C)c43)c2)cc1 (stereo not shown) and report it.
Result :: < 100 nM

Query :: Look up EC50 of Cc1n[nH]c2c1C(c1cc(C#N)cc(-c3ccc(O)c(C(F)(F)F)c3)c1)(C1CCC1)C(C#N)=C(N)O2 (stereo not shown) and report it.
Result :: < 10 nM

Query :: Give recorded EC50. Cc1n[nH]c2c1C(c1cccc(-c3ccc(C(=O)O)cc3)c1)(C1CCC1)C(C#N)=C(N)O2 (stereo not shown)
Result :: < 10 nM
